Target: B-Raf (V600E) (Homo sapiens (Human), UniProt P15056, V600E)
Sequence (P15056 whole entry V600E): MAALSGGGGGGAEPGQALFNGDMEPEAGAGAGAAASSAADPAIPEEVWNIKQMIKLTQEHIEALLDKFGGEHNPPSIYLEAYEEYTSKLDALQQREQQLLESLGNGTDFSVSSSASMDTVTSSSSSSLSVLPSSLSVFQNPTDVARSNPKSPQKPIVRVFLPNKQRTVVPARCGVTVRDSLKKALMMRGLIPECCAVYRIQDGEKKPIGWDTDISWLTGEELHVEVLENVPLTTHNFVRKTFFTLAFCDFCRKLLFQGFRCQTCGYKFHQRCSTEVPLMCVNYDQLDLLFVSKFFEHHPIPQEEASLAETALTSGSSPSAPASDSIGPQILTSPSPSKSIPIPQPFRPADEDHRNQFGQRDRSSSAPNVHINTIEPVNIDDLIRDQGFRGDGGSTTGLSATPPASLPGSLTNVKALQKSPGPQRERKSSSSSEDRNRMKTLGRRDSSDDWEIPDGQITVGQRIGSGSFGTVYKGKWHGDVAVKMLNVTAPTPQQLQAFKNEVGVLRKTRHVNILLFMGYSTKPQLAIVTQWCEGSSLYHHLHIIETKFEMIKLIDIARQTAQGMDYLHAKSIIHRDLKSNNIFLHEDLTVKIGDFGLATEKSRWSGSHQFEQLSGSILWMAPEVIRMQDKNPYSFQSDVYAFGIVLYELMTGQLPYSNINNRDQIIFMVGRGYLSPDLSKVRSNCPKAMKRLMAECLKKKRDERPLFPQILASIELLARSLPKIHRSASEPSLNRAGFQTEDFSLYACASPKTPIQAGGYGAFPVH
Assay: Raf IC50 assay, TR-FRET, B-Raf (V600E)
Conditions: 0.1 mM ATP; read-out: IC50 BRAF-V600E
Reported property: log10(IC50) (log10 of the value in nM)

{"columns": ["Item smiles", "log10(IC50)"],
 "data": [
  ["O=C1CCc2c(Oc3ccc4c(c3)[C@H]3[C@H](NC(=O)c5cc(C(F)(F)F)ccn5)[C@H]3O4)ccnc2N1", 0.49],
  ["CCCCCCC(=O)N[C@@H]1[C@H]2Oc3ccc(Oc4ccnc5c4CCC(=O)N5)cc3[C@@H]12", -0.11],
  ["Cc1cccc(F)c1C(=O)N[C@@H]1[C@H]2Oc3ccc(Oc4ccnc5c4CCC(=O)N5)cc3[C@@H]12", 0.88],
  ["O=C1CCc2c(Oc3ccc4c(c3)[C@H]3[C@H](NC(=O)c5cccc(C(F)(F)F)c5)[C@H]3O4)ccnc2N1", 0.08],
  ["Cc1cc(C(=O)N[C@@H]2[C@H]3Oc4ccc(Oc5ccnc6c5CCC(=O)N6)cc4[C@@H]23)ccc1CN1CCN(C)CC1", 0.74],
  ["CCN1CCC(Cc2ccc(C(=O)N[C@@H]3[C@H]4Oc5ccc(Oc6ccnc7c6CCC(=O)N7)cc5[C@@H]34)cc2C(F)(F)F)CC1", 1.00],
  ["O=C1CCc2c(Oc3ccc4c(c3)[C@H]3[C@H](NC(=O)c5ccc(CO)c(C(F)(F)F)c5)[C@H]3O4)ccnc2N1", 0.57],
  ["COc1cc(C(=O)N[C@@H]2[C@H]3Oc4ccc(Oc5ccnc6c5CCC(=O)N6)cc4[C@@H]23)ccc1CN1CCN(C)CC1", 0.89],
  ["O=C1CCc2c(Oc3ccc4c(c3)[C@H]3[C@H](NC(=O)c5cccc(F)c5)[C@H]3O4)ccnc2N1", -0.12],
  ["CN1C(C)(C)CC(Oc2ccc(C(=O)N[C@@H]3[C@H]4Oc5ccc(Oc6ccnc7c6CCC(=O)N7)cc5[C@@H]34)cc2C(F)(F)F)CC1(C)C", 1.11],
  ["CN1CCN(c2ccc(C(=O)N[C@@H]3[C@H]4Oc5ccc(Oc6ccnc7c6CCC(=O)N7)cc5[C@@H]34)cc2C(F)(F)F)CC1", 0.98],
  ["CCN1CCN(Cc2ccc(C(=O)N[C@@H]3[C@H]4Oc5ccc(Oc6ccnc7c6CCC(=O)N7)cc5[C@@H]34)cc2F)CC1", 0.91],
  ["CN1CCN(Cc2ccc(C(=O)N[C@@H]3[C@H]4Oc5ccc(Oc6ccnc7c6CNC(=O)N7)cc5[C@@H]34)cc2C(F)(F)F)CC1", 1.20]
]}

----------
Entries and their pIC50 values follow.
Target: EGFR T790M/L858R kinase domain (Homo sapiens (Human), UniProt P00533, L858R/T790M)
Sequence (P00533 669-1210 T790M/L858R): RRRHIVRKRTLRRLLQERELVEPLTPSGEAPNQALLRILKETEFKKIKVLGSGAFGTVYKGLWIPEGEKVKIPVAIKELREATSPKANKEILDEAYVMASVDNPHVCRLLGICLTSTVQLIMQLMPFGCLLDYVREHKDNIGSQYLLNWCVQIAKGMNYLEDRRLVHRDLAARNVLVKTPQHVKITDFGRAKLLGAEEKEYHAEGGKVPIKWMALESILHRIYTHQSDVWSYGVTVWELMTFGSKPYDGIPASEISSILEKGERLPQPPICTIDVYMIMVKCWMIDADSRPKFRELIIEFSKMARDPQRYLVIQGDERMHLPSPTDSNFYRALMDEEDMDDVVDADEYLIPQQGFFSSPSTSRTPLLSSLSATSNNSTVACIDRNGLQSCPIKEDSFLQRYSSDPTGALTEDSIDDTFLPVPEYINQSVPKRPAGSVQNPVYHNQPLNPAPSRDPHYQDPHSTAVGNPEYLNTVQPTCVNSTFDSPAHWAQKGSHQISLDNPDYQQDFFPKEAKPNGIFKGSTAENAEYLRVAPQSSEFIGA
Test: EGFR enzymatic assay, TR-FRET, EGFR T790M/L858R
pIC50: −log10 of the molar value.

{"columns": ["Compound", "Target entity", "pIC50"],
 "data": [
  ["Cc1cc(C(=O)N[C@@H]2[C@H]3Oc4ccc(Oc5ccnc6c5CCC(=O)N6)cc4[C@@H]23)ccc1CO [Compound 1.59]", "EGFR T790M/L858R kinase domain (Homo sapiens (Human), UniProt P00533, L858R/T790M)", 8.21],
  ["C[C@@H]1CN(Cc2ccc(C(=O)N[C@@H]3[C@H]4Oc5ccc(Oc6ccnc7c6CCC(=O)N7)cc5[C@@H]34)cc2C(F)(F)F)CCN1 [Compound 1.30]", "EGFR T790M/L858R kinase domain (Homo sapiens (Human), UniProt P00533, L858R/T790M)", 8.57],
  ["O=C1CCc2c(Oc3ccc4c(c3)[C@H]3[C@H](NC(=O)c5ccc(F)c(F)c5)[C@H]3O4)ccnc2N1 [Compound 1.41]", "EGFR T790M/L858R kinase domain (Homo sapiens (Human), UniProt P00533, L858R/T790M)", 6.19]
]}

----------
Molecular target: EGFR T790M/L858R kinase domain (Homo sapiens (Human), UniProt P00533, L858R/T790M)
Experiment: EGFR enzymatic assay, TR-FRET, EGFR T790M/L858R
Reported property: log10 IC50 (log10 of the value in nM)

{"columns": ["Item smiles", "Target entity", "Recorded result"],
 "data": [
  ["CCN1CCN(c2ccc(C(=O)N[C@@H]3[C@H]4Oc5ccc(Oc6ccnc7c6CCC(=O)N7)cc5[C@@H]34)cc2C(F)(F)F)CC1", "EGFR T790M/L858R kinase domain (Homo sapiens (Human), UniProt P00533, L858R/T790M)", 1.40],
  ["NC1(c2cc(C(=O)N[C@@H]3[C@H]4Oc5ccc(Oc6ccnc7c6CCC(=O)N7)cc5[C@@H]34)cc(C(F)(F)F)c2)CC1", "EGFR T790M/L858R kinase domain (Homo sapiens (Human), UniProt P00533, L858R/T790M)", 0.97],
  ["O=C1CCc2c(Oc3ccc4c(c3)[C@H]3[C@H](NC(=O)c5ccc(F)cc5)[C@H]3O4)ccnc2N1", "EGFR T790M/L858R kinase domain (Homo sapiens (Human), UniProt P00533, L858R/T790M)", 2.73],
  ["O=C1CCc2c(Oc3ccc4c(c3)[C@H]3[C@H](NC(=O)c5cc(C(F)(F)F)ccn5)[C@H]3O4)ccnc2N1", "EGFR T790M/L858R kinase domain (Homo sapiens (Human), UniProt P00533, L858R/T790M)", 2.02],
  ["CCN1CCN(Cc2ccc(C(=O)N[C@@H]3[C@H]4Oc5ccc(Oc6ccnc7c6CNC(=O)N7)cc5[C@@H]34)cc2C(F)(F)F)CC1", "EGFR T790M/L858R kinase domain (Homo sapiens (Human), UniProt P00533, L858R/T790M)", -1.12],
  ["CN1CCN(Cc2ccc(C(=O)N[C@@H]3[C@H]4Oc5ccc(Oc6ccnc7c6CCC(=O)N7)cc5[C@@H]34)cc2C(F)(F)F)CC1", "EGFR T790M/L858R kinase domain (Homo sapiens (Human), UniProt P00533, L858R/T790M)", -1.06]
]}

----------
Molecular target: B-Raf (V600E) (Homo sapiens (Human), UniProt P15056, V600E)
Assay: Raf IC50 assay, TR-FRET, B-Raf (V600E)
Details: 0.1 mM ATP; read-out: IC50 BRAF-V600E

{"columns": ["Item smiles", "Units", "IC50"],
 "data": [
  ["CCN1CCC(Oc2ccc(C(=O)N[C@@H]3[C@H]4Oc5ccc(Oc6ccnc7c6CCC(=O)N7)cc5[C@@H]34)cc2C(F)(F)F)CC1", "nM", 12],
  ["C[C@H]1CN(Cc2ccc(C(=O)N[C@@H]3[C@H]4Oc5ccc(Oc6ccnc7c6CCC(=O)N7)cc5[C@@H]34)cc2C(F)(F)F)CCN1", "nM", 6.2],
  ["CCN1CCN(Cc2ccc(C(=O)N[C@@H]3[C@H]4Oc5ccc(Oc6ccnc7c6CCC(=O)N7)cc5[C@@H]34)cc2Cl)CC1", "nM", 5.7],
  ["CC(C)(C#N)c1cccc(C(=O)N[C@@H]2[C@H]3Oc4ccc(Oc5ccnc6c5CCC(=O)N6)cc4[C@@H]23)c1", "nM", 4.1],
  ["NC1(c2cc(C(=O)N[C@@H]3[C@H]4Oc5ccc(Oc6ccnc7c6CCC(=O)N7)cc5[C@@H]34)cc(C(F)(F)F)c2)CC1", "nM", 2.2],
  ["CN(C)[C@H]1CCCN(c2ccc(C(=O)N[C@@H]3[C@H]4Oc5ccc(Oc6ccnc7c6CCC(=O)N7)cc5[C@@H]34)cc2C(F)(F)F)C1", "nM", 10],
  ["CCN1CCN(Cc2ccc(C(=O)N[C@@H]3[C@H]4Oc5ccc(Oc6ccnc(N)c6)cc5[C@@H]34)cc2C(F)(F)F)CC1", "nM", 58],
  ["CN(C)Cc1cc(C(=O)N[C@@H]2[C@H]3Oc4ccc(Oc5ccnc6c5CCC(=O)N6)cc4[C@@H]23)cc(C(F)(F)F)c1", "nM", 3.6],
  ["O=C1CCc2c(Oc3ccc4c(c3)[C@H]3[C@H](NC(=O)c5ccc(CN6CCNCC6)c(C(F)(F)F)c5)[C@H]3O4)ccnc2N1", "nM", 27.2],
  ["CN(C)[C@@H]1CCCN(Cc2ccc(C(=O)N[C@@H]3[C@H]4Oc5ccc(Oc6ccnc7c6CCC(=O)N7)cc5[C@@H]34)cc2C(F)(F)F)C1", "nM", 15],
  ["CN1CCN(Cc2ccc(C(=O)N[C@@H]3[C@H]4Oc5ccc(Oc6ccnc7c6CCC(=O)N7)cc5[C@@H]34)cc2C(F)(F)F)CC1", "nM", 7.1],
  ["CNC(=O)c1cc(Oc2ccc3c(c2)[C@H]2[C@H](NC(=O)c4ccc(CN5CCN(C)CC5)c(C(F)(F)F)c4)[C@H]2O3)ccn1", "nM", 49],
  ["O=C1CCc2c(Oc3ccc4c(c3)[C@H]3[C@H](NC(=O)c5ccccc5C(F)(F)F)[C@H]3O4)ccnc2N1", "nM", 4.8],
  ["O=C1CCc2c(Oc3ccc4c(c3)[C@H]3[C@H](NC(=O)c5ccc(CN6CCOCC6)c(C(F)(F)F)c5)[C@H]3O4)ccnc2N1", "nM", 36],
  ["CCN1CCN(Cc2cc(C(=O)N[C@@H]3[C@H]4Oc5ccc(Oc6ccnc7c6CCC(=O)N7)cc5[C@@H]34)cc(C(F)(F)F)c2)CC1", "nM", 12],
  ["CN1CCN(Cc2ccc(C(=O)N[C@@H]3[C@H]4Oc5ccc(Oc6ccnc7c6CCC(=O)N7)cc5[C@@H]34)cc2Cl)CC1", "nM", 4.8],
  ["CCN1CCN(Cc2ccc(C(=O)N[C@@H]3[C@H]4Oc5ccc(Oc6ccnc7c6CCC(=O)N7)cc5[C@@H]34)cc2OC(F)(F)F)CC1", "nM", 10],
  ["O=C1CCc2c(Oc3ccc4c(c3)[C@H]3[C@H](NC(=O)Cc5cccc(C(F)(F)F)c5)[C@H]3O4)ccnc2N1", "nM", 1.5],
  ["CCCCCCCCCC(=O)N[C@@H]1[C@H]2Oc3ccc(Oc4ccnc5c4CCC(=O)N5)cc3[C@@H]12", "nM", 24],
  ["CCCCCC(=O)N[C@@H]1[C@H]2Oc3ccc(Oc4ccnc5c4CCC(=O)N5)cc3[C@@H]12", "nM", 0.6]
]}
